observable: melting point

The compound listed as COc1ccc(Sc2ncccc2C(=O)NCC23CC4CC(CC(C4)C2)C3)cc1 shows melting point equal to 130 to 131 °C

Recorded result, C=CCOc1ccc2c(c1)Oc1cc(O)ccc1C21OC(=O)c2ccccc21 (centres undefined) , melting point: 204 °C

# melting point of O=C(O)c1cccc2c(=O)cc(-c3cccc(OCc4ccccc4)c3)oc12 = 121 to 122 °C

The compound CCOC(=O)CCCCOc1ccc(OC)c(OC)c1C=O showed melting point equal to 105 to 107 °C

Record COC(=O)c1sc2c(c1N)-c1ccccc1CN2c1ccccc1 , field melting point: 136 to 142 °C

According to the records, this compound COc1ccc(C(C)C)cc1-c1cc(C(=O)NCCc2ccccc2)c(OCc2ccccc2)cc1OCc1ccccc1 displays melting point of 138 to 140 °C

// sample Cc1c(C(=O)Nc2ccc(N3CCC(N4CCC(O)CC4)CC3)c(C#N)c2)cnn1-c1ccc(Cl)cc1 , its melting point was 213 °C

Notebook: COc1cc2c(c(OC)c1)C(=O)CCC2 , melting point read as 58 to 61 °C

get_value(item= CCOCc1nc2c(N)nc3ccccc3c2n1CCOCCNS(C)(=O)=O , readout=melting point) returns 152 to 155 °C

Reported melting point for Cc1cc(-n2cncn2)c2cccc(OCc3c(Cl)ccc(S(=O)(=O)N4CCC[C@H]4C(=O)NCC4CCN(CCOCCO)CC4)c3Cl)c2n1 was 82 °C

Nc1nc(N)c(CCCCc2csc(OC(=O)N[C@@H](CCC(=O)O)C(=O)O)c2)c(O)n1 yielded melting point of 235 to 236 °C

Item: O=C(Nc1nccs1)C(CC1CCCC1)c1ccc(-c2ccccc2)cc1 (centres undefined) | melting point: 57 to 58 °C

Field melting point (entry N#Cc1ccc(C(=O)c2ccc(S)cc2)cc1 ) reads 156 °C

Looking up CCCS(=O)(=O)NC(=O)CCc1cc(OC(C)C)nn1Cc1ccc(Cl)cc1Cl , I found its melting point recorded as 124 to 126 °C

melting point in this record for COc1ccc(CNC(=O)c2cc3c(=O)n(CC#N)c(=O)n(C)c3s2)cc1 : 180 to 183 °C

For reference, reported melting point for c1ccc2c(c1)NCc1cscc1N2 stands at 167 to 169 °C

GET /value?item= Cc1cccc(C(=O)Nc2ccc(N3CCN(Cc4cccc(C#N)c4)CC3)cc2)c1-c1ccc(C(F)(F)F)cc1 &field=melting point returns 192 °C

GET /value?item= O=C(C1CCN(CCO)CC1)N1CCN2C(=O)OC(c3ccccc3)(c3ccccc3)C2C1 (centres undefined) &field=melting point returns 160 to 162 °C

The reported value for C[Si](C)(O)O[Si](C)(C)c1ccc(OC(=O)Oc2ccc([Si](C)(C)O[Si](C)(C)O)cc2)cc1 in terms of melting point is 62 to 63 °C

###

Would you kindly list melting point for each of these compounds?

Noted for O=c1oc(-c2ccc(Cl)cc2)cc(O)c1SCCc1ccccc1 : its melting point reads 161 to 163 °C

compound CCc1nc(N)nc(NC(CC)COCc2ccc(F)cc2)n1 (stereo unspecified) , melting point observed: 96 °C

Field melting point (entry O=C1CCN2C(=O)c3cccc(NC(=O)Nc4cc(O)c5ccccc5n4)c3C2C1 (stereo unspecified) ) reads > 260 °C

# compound O=C(CCC1CCCCCCCCCCC1=O)C1=C(O)CSC1=O (stereo unspecified) ; its melting point = 93 to 95 °C

The reported value for CC1(C)COC(c2ccccc2S(N)(=O)=O)=N1 in terms of melting point is 142 to 146 °C

The compound listed as CCOC(=O)c1ncc2[nH]c3cccc(Oc4ccc(Cl)cc4)c3c2c1COC has a reported melting point of 207 °C

According to the records, this compound CON=C(C)c1ccc(NS(C)(=O)=O)c(Sc2ccc(F)cc2F)c1 displays melting point of 110 to 111 °C

For record Oc1ccc2cc(-c3nc4ccc(O)cc4o3)ccc2c1 the listed melting point is 288 to 290 °C

Just so you know, measured melting point for CCOC(=O)Nc1ccccc1N1CC2(CCN(C)CC2)c2ccccc21 came out at 99.5 to 101 °C

// melting point value for O=C1C2CC(F)CCN2C(=O)N1c1ncc(Cl)cc1F (stereo unspecified) : 154 to 157 °C

Data point: O=C(O)[C@@H]1[C@H](C(=O)O)N(Cc2ccccc2)C(=O)N1Cc1ccccc1 ; melting point = 173 °C

// melting point value for O=C1C[C@H]2CCCC[C@]23c2cccn2CCN13 (relative stereo) : 122 to 123 °C

melting point for Cc1ccc2c(c1)C(OC(C)C)=C(C(=O)O)S2=O (stereo unspecified) is 184 to 187 °C

Documented melting point of CCOC(=O)c1c(Nc2ccccc2C)n[nH]c1C : 156 to 160 °C

Reported melting point for Oc1ccc(N2CCN(c3nccs3)CC2)cc1 was 170 °C

Query O=CN1CCC(C(=O)N2CCN3C(=O)OC(c4ccccc4)(c4ccccc4)C3C2)CC1 (stereo unspecified) yields melting point of 133 to 136 °C

For Cc1cc(C)c2nc3n(c(=O)c2c1)-c1ccc(F)cc1C3=O the compound record lists melting point as 275 to 277 °C

melting point for N#Cc1ccc(-c2ccc(-c3ccc(C#N)cn3)s2)cc1 is 316 to 318 °C

melting point for CCCCCCCCCCOCc1ccc(CO)cc1 is 20 to 31 °C

// Cc1c(CC(C)C)sc2nc(C(Cl)(Cl)Cl)[nH]c(=O)c12 : melting point value = 192 to 194 °C

Per the records, this compound ( CNc1ccc2c(c1N)C(=O)OC21c2cc(F)c(O)cc2Oc2cc(O)c(F)cc21 ) has melting point equal to 265 °C

###

observable: melting point

The measured melting point associated with CS(=O)(=O)N1CCN2C(=O)N(c3ccc(C#N)c4ccccc34)C(=O)C2C1 (stereo not given) reads 207 to 216 °C

Field melting point (entry CCSC(F)(F)C(O)(Cn1cncn1)c1ccc(F)cc1F (stereo not given) ) reads 109 to 110 °C

Given item CC(C)N1CC(COc2cccc3c(=O)[nH]ccc23)OC1=O (stereo not given) , the value recorded as its melting point is 215 to 216 °C

Per the record, Cn1cc(OS(C)(=O)=O)c(=O)c2ccccc21 has melting point of 208 to 209 °C

According to the records, this compound CCOC(=O)c1cc(NCc2ccccc2)c(NC2CCCCC2)c(S(N)(=O)=O)c1 displays melting point of 176 to 177 °C

###

observable: melting point

# melting point of O=C(O)Cn1c(-c2ccc(Br)o2)nc2cccnc21 = 229 to 231 °C

Lab note: COC(=O)c1cccc(-c2cccc3c2nc(N(C)c2cccc(C(F)(F)F)c2)n3C)c1 gave melting point of 148 to 149 °C

melting point measured on Fc1ccc(-c2ccn(C3CN4CCC3CC4)c2-c2ccncc2)cc1 (stereo unspecified) = 229 to 230 °C

Form: molecule = CCOC(=O)CCc1oc2cccc(O)c2c1C ; melting point = 61 to 63 °C

Form field melting point, entry Cc1cc(F)ccc1-c1ccc2c(c1)NC(=O)CC(c1cccc(-n3ccnc3)c1)=N2 : 170 to 172 °C

For this molecule ( CC1(C)CC(=O)c2c(nc(Cc3ccc(N)cc3)c3[nH]c4ccccc4c23)C1 ), measured melting point is 123 to 124 °C

The recorded melting point for entry CCCCCCCCCCOc1ccc(OCc2ccccc2)c(C(=O)N(CC(=O)OCC)CC(=O)OCC)c1 equals 37 to 38 °C

Briefly, melting point measured for COC(=O)c1cc(Cl)cc2c1OC(C)C(=O)N2 (stereo unspecified) : 186 to 189 °C

Lab note: measured melting point of CCOC(=O)C(CC)C(=O)N1NCCCC1C(=O)OC(C)(C)C (stereo unspecified) was 78 to 79 °C

Short answer for O=CNC(C(=O)O)c1ccccc1 (stereo unspecified) : melting point was 170 to 175 °C

Query Cc1ccc2cccc(N3CCNCC3)c2n1 yields melting point of 163 to 164 °C

Item: O=C1CCC(c2ccc(O)cc2)=NN1c1ccccn1 | melting point: > 220 °C

response.value for CC(C)(C)n1nc(Cc2ccccc2)c2c(N)nc(-c3ccncc3)nc21 (field: melting point) = 188 to 189 °C

melting point reported for this molecule NCCc1ccc(-n2nc(C(F)(F)F)cc2C(F)(F)F)cc1 : 54 °C

Lab note: CCCCCCCCCCCCCCCNC(=O)OCC(CO)OC (stereo unspecified) gave melting point of 42.5 to 43 °C

Lookup result for Cc1cccc(Cl)c1OC1CN(C(c2ccccc2)c2ccccc2)C1 ; measured melting point: 92 to 93 °C

The molecule listed as CCOC(=O)N1CC2CC1CN2Cc1ccccc1 (stereo unspecified) has a reported melting point of 124 to 128 °C

Record CCC[C@H]1CC[C@H](CCCOc2ccc(C(=O)O[C@H](C)[C@@H](C)OC(=O)c3ccc(OCCC[C@H]4CC[C@H](CCC)CC4)cc3)cc2)CC1 , field melting point: 109 °C

The recorded melting point for CC(C)NCC(O)COc1cccnc1[N+](=O)[O-] (stereo unspecified) is 99 to 101 °C

According to the records, this molecule CCCC[C@H](NC(=O)[C@H](CC(C)C)NC(=O)OCc1ccccc1)C(=O)CSC displays melting point of 80 to 82 °C

O=[N+]([O-])C=C1NCCCN1Cc1ccc(Cl)cc1 has a reported melting point of 172 to 174 °C
